- ASSAYED TARGET: purified recombinant HIV RT (Human immunodeficiency virus type 1 group M subtype B, UniProt P04585)
- Construct: purified recombinant HIV RT; purchased Amersham, Arlington Heights, Ill; (Quan-T-RT system)
- METHOD NOTES: Purified RT assay, cell-free Quan-T-RT system (scintillation proximity)
- Format: biochemical
- RUN CONDITIONS: IC50 rRT, Table 2; recombinant HIV RT
EXPERIMENTAL READOUT: pIC50
In simple prose, pIC50 is minus the logarithm base ten of a concentration in moles per litre.

{"ITEM SMILES": "S=C(NCCc1cccs1)Nc1ccc(Br)cn1", "pIC50": 5.28}

Moving on to another compound below.
For reference, reported pIC50 for `S=C(NCCN1CCCCC1)Nc1ccc(Br)cn1` stands at 6.22
